CC50: recorded values
# assay text: Cytotoxicity against human THP-1 cells assessed as cell growth inhibition
# Format: toxicity, cell-based

The following molecules have reported results that may help.
smiles input: COc1ccc(-c2cnc(NC(=O)c3ccccc3F)n2C)cc1
CC50: > 100 µM

smiles input: COc1ccc(-c2cn(C)c(NC(=O)c3ccc(F)cc3)n2)cc1
CC50: > 50 µM

smiles input: COc1ccc(CNC(=O)NC(=O)c2ccc(F)cc2)cc1
CC50: > 50 µM

smiles input: COc1ccc(-c2cnc(NC(=O)c3cnc[nH]3)n2C)cc1
CC50: > 100 µM

smiles input: COc1cccc(-c2cnc(NC(=O)c3ccc(F)cc3)n2C)c1
CC50: > 100 µM

smiles input: Cc1ccccc1C(=O)Nc1ncc(-c2ccccc2)n1C
CC50: > 100 µM

Q. Requested read-out: CC50. Entry: COc1ccc(-c2cnc(NC(=O)c3ccccc3OC)n2C)cc1
A. > 100 µM

Q. # repeat for Cn1c(-c2ccccc2)cnc1NC(=O)c1cccc(Br)c1
A. > 50 µM

Q. # repeat for COc1ccc(-c2cnc(NC(=O)c3ccc(F)cc3)n2C(C)C)cc1
A. > 50 µM

----------
# assay text: Cytotoxicity against human THP-1 cells assessed as cell growth inhibition
# Format: toxicity, cell-based
measurement kind: CC50

The following molecules have reported results that may help.
smiles input: COc1ccc(-c2cnc(NC(=O)c3cccc(Br)c3)n2C)cc1
CC50: > 100 µM

smiles input: Cn1c(-c2ccccc2)cnc1NC(=O)C1CCCCC1
CC50: > 100 µM

Q. Requested read-out: CC50. Entry: Cc1cccc(-c2cnc(NC(=O)c3ccc(F)cc3)n2C)c1
A. > 100 µM

Q. # repeat for COc1ccc(-c2cnc(NC(=O)c3cccnc3)n2C)cc1
A. > 100 µM

Q. # repeat for CCCC(=O)Nc1ncc(-c2ccc(OC)cc2)n1C
A. > 100 µM

Q. # repeat for COc1ccc(-c2cnc(NC(=O)c3ccccc3)n2C)cc1
A. > 100 µM

Q. # repeat for COc1ccc(-c2cnc(NC(=O)c3ccccn3)n2C)cc1
A. > 100 µM

Q. # repeat for COc1ccc(-c2cccc(NC(=O)c3ccc(F)cc3)n2)cc1
A. > 100 µM

----------
# assay text: Selectivity index, ratio of CC50 for cytotoxicity against human THP-1 cells to IC50 for antileishmanial activity against Leishmania donovani infected in human THP-1 cells
# Type: toxicity, cell-based
# cond: read-out: Ratio CC50/IC50
measurement kind: selectivity ratio

Q. Requested read-out: selectivity ratio. Entry: COc1ccc(-c2cnc(NC(=O)c3ccc(Cl)cc3)n2C)cc1
A. > 12

Q. # repeat for COc1ccc(-c2cccc(NC(=O)c3ccc(F)cc3)n2)cc1
A. > 1

Q. # repeat for COc1ccc(-c2ccc(NC(=O)c3ccc(F)cc3)nc2)cc1
A. > 1

Q. # repeat for COc1ccc(-c2cnc(NC(=O)c3ccno3)n2C)cc1
A. > 1

Q. # repeat for COc1ccc(-c2cnc(NC(=O)c3ncc[nH]3)n2C)cc1
A. > 9.1

Q. # repeat for COc1ccc(-c2cnc(NC(=O)c3ccc(O)cc3)n2C)cc1
A. > 1

Q. # repeat for COc1ccc(-c2cn(C)c(NC(=O)c3ccc(F)cc3)n2)cc1
A. > 1

Q. # repeat for COc1ccccc1-c1cnc(NC(=O)c2ccc(F)cc2)n1C
A. > 1

----------
# assay text: Selectivity index, ratio of CC50 for cytotoxicity against human THP-1 cells to IC50 for antileishmanial activity against Leishmania donovani infected in human THP-1 cells
# Type: toxicity, cell-based
# cond: read-out: Ratio CC50/IC50
measurement kind: selectivity ratio

The following compounds have reported results that may help.
smiles input: COc1ccc(-c2cnc(NC(=O)c3ccc(F)cc3)n2-c2ccccc2)cc1
assay value: > 2.9

smiles input: COc1ccc(-c2cnc(NC(=O)c3ccncc3)n2C)cc1
assay value: > 2.3

smiles input: Cc1cccc(C(=O)Nc2ncc(-c3ccccc3)n2C)c1
assay value: > 14

Q. Requested read-out: selectivity ratio. Entry: COc1ccc(-c2cnc(NC(=O)c3cccc([N+](=O)[O-])c3)n2C)cc1
A. > 1

----------
CC50: recorded values
# assay text: Cytotoxicity against human THP-1 cells assessed as cell growth inhibition
# Assay type: toxicity, cell-based

The following molecules have reported results that may help.
smiles input: Cn1c(-c2ccccc2Cl)cnc1NC(=O)c1ccc(F)cc1
CC50: > 50 µM
//
smiles input: COc1ccccc1-c1cnc(NC(=O)c2ccc(F)cc2)n1C
CC50: > 100 µM
//
smiles input: COc1ccc(-c2cnc(NC(=O)c3ccccc3C#N)n2C)cc1
CC50: > 100 µM
//
smiles input: COc1ccc(-c2cnc(NC(=O)c3cccc([N+](=O)[O-])c3)n2C)cc1
CC50: > 100 µM
//
smiles input: COc1ccc(C(=O)Nc2ncc(-c3ccc(OC)cc3)n2C)cc1
CC50: > 100 µM

Q. Requested read-out: CC50. Entry: COc1ccc(-c2cnc(NC(=O)c3ccn[nH]3)n2C)cc1
A. > 100 µM

Q. # repeat for Cn1c(-c2ccccc2)cnc1NC(=O)c1ccc(F)cc1
A. > 100 µM

Q. # repeat for Cn1c(-c2ccc([N+](=O)[O-])cc2)cnc1NC(=O)c1ccc(F)cc1
A. > 50 µM

Q. # repeat for COc1ccc(-c2cnc(NC(=O)c3ccc(Cl)cc3)n2C)cc1
A. > 100 µM

Q. # repeat for COc1ccc(-c2cnc(NC(=O)c3ccccc3Cl)n2C)cc1
A. > 50 µM

----------
# assay text: Cytotoxicity against human THP-1 cells assessed as cell growth inhibition
# Assay type: toxicity, cell-based
measurement kind: CC50

smiles input: Cc1ccc(C(=O)Nc2ncc(-c3ccccc3)o2)cc1
assay value: 26 µM

Q. Requested read-out: CC50. Entry: Cn1c(-c2ccc(Br)cc2)cnc1NC(=O)c1ccc(F)cc1
A. 46 µM

Q. # repeat for COc1ccc(-c2cnc(NC(=O)c3ccc(F)cc3)n2C)cc1
A. ≥ 50 µM

Q. # repeat for Cn1c(-c2ccc(F)cc2)cnc1NC(=O)c1ccc(F)cc1
A. > 100 µM

Q. # repeat for COc1ccc2c(c1)nc(NC(=O)c1ccc(F)cc1)n2C
A. > 100 µM

Q. # repeat for CCCn1c(-c2ccc(OC)cc2)cnc1NC(=O)c1ccc(F)cc1
A. > 100 µM

Q. # repeat for COc1ccc(-c2cnc(NC(=O)c3cnco3)n2C)cc1
A. > 100 µM

Q. # repeat for COc1ccc(-c2cnc(NC(=O)CCc3ccccc3)n2C)cc1
A. > 100 µM

Q. # repeat for Cc1cccc(C(=O)Nc2ncc(-c3ccccc3)n2C)c1
A. > 50 µM

Q. # repeat for Cn1c(-c2ccc(C#N)cc2)cnc1NC(=O)c1ccc(F)cc1
A. > 50 µM

Q. # repeat for COc1ccc(-c2cnc3nc(-c4ccc(F)cc4)[nH]c3c2)cc1
A. > 100 µM

Q. # repeat for COc1ccc(-c2cnc(NC(=O)c3ncc[nH]3)n2C)cc1
A. > 100 µM

Q. # repeat for Cn1c(-c2cccc(Br)c2)cnc1NC(=O)c1ccc(F)cc1
A. > 50 µM

Q. # repeat for COc1ccc(-c2cnc(NC(=O)C3CCCC3)n2C)cc1
A. > 100 µM

Q. # repeat for Cn1c(-c2ccccc2[N+](=O)[O-])cnc1NC(=O)c1ccc(F)cc1
A. 31 µM

Q. # repeat for Cn1c(-c2cccc(Cl)c2)cnc1NC(=O)c1ncc[nH]1
A. 55 µM

Q. # repeat for O=C(Nc1ncc(-c2ccccc2)o1)c1ccc(Cl)cc1
A. 10 µM
